experiment summary: Efflux ratio of permeability in human Caco2 cells at 1 uM after 2 hrs by Transwell assay
Assay type: ADME, cell-based
particulars: Caco-2
endpoint name: efflux ratio at 2 h, 1 µM
API note: the answer field is a bare number with no unit suffix.

compound smiles | efflux ratio at 2 h, 1 µM
Nc1n[nH]c2ccc(C(=O)N3CCC[C@H]3c3ccc(Cl)cc3)cc12 | 2.2

Okay, now this molecule:
Respond only with efflux ratio at 2 h, 1 µM recorded for Cc1n[nH]c2ncc(C(=O)N3CCC[C@H]3c3ccc(Cl)cc3)cc12
1.5

###

tgt: Cyclin-dependent kinase 8 (Homo sapiens, UniProt P49336)
Sequence (P49336 whole entry): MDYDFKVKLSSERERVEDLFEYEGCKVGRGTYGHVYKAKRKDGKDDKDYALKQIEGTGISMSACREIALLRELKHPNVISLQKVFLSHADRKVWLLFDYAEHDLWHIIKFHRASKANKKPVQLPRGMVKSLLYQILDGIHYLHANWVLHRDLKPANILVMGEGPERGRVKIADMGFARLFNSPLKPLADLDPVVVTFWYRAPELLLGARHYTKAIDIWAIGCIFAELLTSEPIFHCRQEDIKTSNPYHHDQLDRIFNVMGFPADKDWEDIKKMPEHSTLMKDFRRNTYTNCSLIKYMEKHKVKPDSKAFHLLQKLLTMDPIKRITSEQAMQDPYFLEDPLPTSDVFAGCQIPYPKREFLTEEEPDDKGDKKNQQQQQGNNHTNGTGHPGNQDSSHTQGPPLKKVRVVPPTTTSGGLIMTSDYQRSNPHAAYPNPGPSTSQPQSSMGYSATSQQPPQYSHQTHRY
experiment summary: Inhibition of CDK8 in human 7dF3 cells preincubated for 2 hrs followed by beta-oestradiol addition measured after 24 hrs by luciferase reporter gene assay
Type: cell-based
endpoint name: IC50 (nM)
Answer in nM, number only, no unit symbol.

The following compounds have reported results that may help.
compound | reported
Cc1n[nH]c2ccc(C(=O)N3CCC[C@H]3c3ccc(Cl)cc3)nc12 | 2.8
Cc1ncc2ccc(C(=O)N3CCC[C@H]3c3ccc(Cl)cc3)cn12 | 90
Cc1ncc2sc(C(=O)N3CCCC3c3ccc(F)cc3)nn12 (stereo unspecified) | 290
Cc1n[nH]c2ccc(C(=O)N3CCC[C@H]3c3ccc(Cl)cc3)cc12 | 0.6
Cc1n[nH]c2cnc(C(=O)N3CCC[C@H]3c3ccc(Cl)cc3)cc12 | 125

Provide only the value of recorded IC50 for Cc1n[nH]c2ccc(C(=O)N3CCN(C)CC3c3ccc(Cl)cc3)cc12 (stereo unspecified)
230

Return IC50 (reported value) for this compound: O=C(c1ccc2[nH]ncc2c1)N1CCC[C@H]1c1ccc(Cl)cc1
100

Supply IC50 value. Item: CNc1n[nH]c2ccc(C(=O)N3CCC[C@H]3c3ccc(Cl)cc3)cc12
12

Hello, please tell me recorded IC50 for this one: Cc1ncc2sc(C(=O)N3CCCC3c3ccccc3)nn12 (stereo unspecified)
415

For the compound Nc1n[nH]c2ccc(C(=O)N3CCCC[C@H]3c3ccc(F)cc3)cc12 , report IC50.
800

Data provenance: ChEMBL document CHEMBL3853318
